- testedTarget: Adenosylmethionine-8-amino-7-oxononanoate aminotransferase (Mycobacterium tuberculosis, UniProt P9WQ81)
- Sequence (P9WQ81 whole entry): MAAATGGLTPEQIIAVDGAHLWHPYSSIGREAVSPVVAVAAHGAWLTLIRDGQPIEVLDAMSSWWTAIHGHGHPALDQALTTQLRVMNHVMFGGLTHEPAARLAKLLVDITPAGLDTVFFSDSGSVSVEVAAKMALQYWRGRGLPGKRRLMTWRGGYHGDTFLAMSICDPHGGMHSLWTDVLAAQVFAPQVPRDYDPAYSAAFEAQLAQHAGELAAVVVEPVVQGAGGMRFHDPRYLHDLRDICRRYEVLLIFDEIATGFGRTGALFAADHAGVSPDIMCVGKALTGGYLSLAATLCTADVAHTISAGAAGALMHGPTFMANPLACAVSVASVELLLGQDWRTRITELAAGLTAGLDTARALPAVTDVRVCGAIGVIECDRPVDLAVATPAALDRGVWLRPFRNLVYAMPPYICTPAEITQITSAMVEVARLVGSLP
- protocolSummary: Mycobacterium tuberculosis BioA enzyme inhibitor Measured in Biochemical System Using Plate Reader - 2163-02_Inhibitor_Dose_CherryPick_Activity.
- Format: functional, Mycobacterium tuberculosis UT205
Active and inactive are the calls of the source. How the calls were made is not given here.
quantity: AC50

Known AC50 results, listed for orientation:
CC1Cc2nc(SCC(=O)N3CCOCC3)n(-c3ccccc3)c(=O)c2S1 (stereo not given): 5.31 µM (active)
CCNC(=O)[C@H]1[C@H](CO)[C@H]2Cn3c(ccc(-c4ccccc4)c3=O)[C@H]2N1C(=O)Cc1cccnc1: 16.3 µM (active)
Nn1c(SC/C=C/c2ccccc2)nnc1-c1cccnc1: 0.311 µM (active)

input: Name the reported AC50 value associated with the compound CC(=O)c1ccc(N2CCN(C(=O)c3ccc4c(c3)OCO4)CC2)cc1
output: 0.155 µM (active)

input: Name the reported AC50 value associated with the compound O=C(CSc1nc2c(c(=O)n1-c1ccc(Cl)cc1)SCC2)N1CCOCC1
output: 6.81 µM (active)

###

Each entry below carries its measured AC50, system: Cytochrome P450 2C9 (Homo sapiens, UniProt P11712).
Sequence (P11712 whole entry): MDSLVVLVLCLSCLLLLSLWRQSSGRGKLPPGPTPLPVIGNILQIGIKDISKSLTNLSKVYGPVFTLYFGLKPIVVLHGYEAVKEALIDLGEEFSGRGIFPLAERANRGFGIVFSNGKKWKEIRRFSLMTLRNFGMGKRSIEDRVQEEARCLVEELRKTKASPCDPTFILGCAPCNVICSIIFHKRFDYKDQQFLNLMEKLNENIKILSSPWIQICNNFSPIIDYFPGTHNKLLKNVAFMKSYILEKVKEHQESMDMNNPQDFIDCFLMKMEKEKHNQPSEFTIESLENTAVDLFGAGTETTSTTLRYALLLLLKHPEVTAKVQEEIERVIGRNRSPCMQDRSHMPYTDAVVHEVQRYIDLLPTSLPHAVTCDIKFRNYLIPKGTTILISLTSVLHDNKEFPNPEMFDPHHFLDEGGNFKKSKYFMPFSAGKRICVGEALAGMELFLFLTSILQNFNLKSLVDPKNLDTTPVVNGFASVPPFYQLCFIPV

Known AC50 results, listed for orientation:
CN(Cc1ccco1)c1ncnc2ccc(-c3ccccc3C(F)(F)F)cc12: 1 µM (inconclusive)
Nc1c(-c2ccccc2)cnn1-c1cccc([N+](=O)[O-])c1: 28.2 µM (inconclusive)
O=c1c(Cc2ccccc2)c(O)nc2n1CCS2: 14.1 µM (inconclusive)
CCC/C=C(\CCC)C(NC(=O)Oc1ccc(F)cc1)c1ccc(C(=O)OC)cc1 (centres undefined): 39.8 µM (inconclusive)
COc1ccc(NC(=O)N2CCC3(CC2)CCN(C(=O)c2cnccn2)CC3)cc1: 31.6 µM (inconclusive)
COCCn1c(=O)c(C)nc2cnc(Oc3ccc(OC)cc3)nc21: 20 µM (inconclusive)
CNc1nc(NCCOC23CC4CC(CC(C4)C2)C3)nc(OCC(F)(F)F)n1: 15.8 µM (inconclusive)
Cc1cnn(-c2cc(N/N=C/c3ccccc3F)ncn2)c1: 1.26 µM (inconclusive)
Cc1c(C(c2cccc([N+](=O)[O-])c2O)c2c(C)n(C)n(-c3ccccc3)c2=O)c(=O)n(-c2ccccc2)n1C: 0.00562 µM (inconclusive)
COc1ccc(CNCCc2ccccc2)cc1OCC(N)=O: 0.0282 µM (inconclusive)

input: Name the reported AC50 value associated with the molecule CCN(CC)c1ccc2c(Cl)cc(=O)oc2c1
output: 31.6 µM (inconclusive)

input: Name the reported AC50 value associated with the molecule COc1ccc(-c2nnn(Cc3nc(N)nc(N4CCOCC4)n3)n2)cc1OC
output: 25.1 µM (inconclusive)

input: Name the reported AC50 value associated with the molecule Cc1cc(C)cc(N(C(=O)C2CCCC2)C2C=CS(=O)(=O)C2)c1 (centres undefined)
output: 35.5 µM (inconclusive)

input: Name the reported AC50 value associated with the molecule COc1c(Cl)cc(Cl)cc1CNCCNCCO
output: 22.4 µM (inconclusive)

input: Name the reported AC50 value associated with the molecule Cn1c(O)cc(=O)nc1SCC(=O)Nc1ccccc1
output: 2.82 µM (inconclusive)

input: Name the reported AC50 value associated with the molecule CCOc1nn(-c2ccc(Cl)cc2)c(O)c1/C=N/c1ccc(O)cc1
output: 3.55 µM (inconclusive)

input: Name the reported AC50 value associated with the molecule O=C(CON1C(=O)c2ccccc2C1=O)c1ccccc1
output: 6.31 µM (inconclusive)

input: Name the reported AC50 value associated with the molecule Cc1cc(C)n(-c2nc(NC(C)(C)C)nc(NC(C)(C)C)n2)n1
output: 8.91 µM (inconclusive)

input: Name the reported AC50 value associated with the molecule COc1ccc(OCCSc2nc[nH]n2)cc1
output: 22.4 µM (inconclusive)

// provenance: ChEMBL document CHEMBL1201862
